For each entry below, report its koff value.
Target: T1, recombinant human HER2 extracellular domain protein (human, UniProt P04626 23-652)
T1 construct: range 23-652; Range is printed for the immunogen/panning protein; also called ErbB2; recombinant HER2 protein
Assay: BLI, Protein A capture
Field: numeric (s⁻¹). Do not append units.

## Task // fetch koff given entry 2126-Hu-L21 (antibody, IgG1, V domains shown, IgG1/Cκ) VH: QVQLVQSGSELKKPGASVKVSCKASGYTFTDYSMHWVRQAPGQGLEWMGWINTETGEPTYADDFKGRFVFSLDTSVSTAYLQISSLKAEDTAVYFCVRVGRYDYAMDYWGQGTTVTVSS VL: DIQMTQSPSSLSASVGDRVTITCKASQDVYTAVAWYQQKPGKAPKLLINSASYRYTGVPSRFSGSGSGTDFTLTISSLQPEDFATYYCQQYYSTPPTFGGGTKVEIK
## Result 0.000193

## Task // fetch koff given entry 2126-Hu-H46 (antibody, IgG1, V domains shown, IgG1/Cκ) VH: QVQLVQSGSELKKPGASVKVSCKASGYTFTDYSMHWVRQAPGQGLEWMGWINTETGEPTYADDFKGRFVFSLDTSVSTAYLQISSLKAEDTAVYYCVRVGRYDYAMDYWGQGTTVTVSS VL: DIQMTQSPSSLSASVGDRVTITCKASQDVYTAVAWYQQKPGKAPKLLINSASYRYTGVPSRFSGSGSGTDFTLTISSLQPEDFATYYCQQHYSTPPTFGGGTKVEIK
## Result 0.000597

## Task // fetch koff given entry 2126-Hu-L11 (antibody, IgG1, V domains shown, IgG1/Cκ) VH: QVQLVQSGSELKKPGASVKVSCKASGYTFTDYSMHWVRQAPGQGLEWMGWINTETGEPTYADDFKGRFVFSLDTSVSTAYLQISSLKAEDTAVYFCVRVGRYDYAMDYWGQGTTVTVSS VL: DIQMTQSPSSLSASVGDRVTITCKASQDVYTAVAWYQQKPGKAPKLLINSASQRYTGVPSRFSGSGSGTDFTLTISSLQPEDFATYYCQQHYSTPPTFGGGTKVEIK
## Result 0.000651

## Task // fetch koff given entry 2126-Hu-L01 (antibody, IgG1, V domains shown, IgG1/Cκ) VH: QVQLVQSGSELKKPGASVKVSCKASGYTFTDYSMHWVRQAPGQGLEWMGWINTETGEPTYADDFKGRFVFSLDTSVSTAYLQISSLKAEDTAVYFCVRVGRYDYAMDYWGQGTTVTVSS VL: DIQMTQSPSSLSASVGDRVTITCKASQSVYTAVAWYQQKPGKAPKLLINSASYRYTGVPSRFSGSGSGTDFTLTISSLQPEDFATYYCQQHYSTPPTFGGGTKVEIK
## Result 0.00195

## Task // fetch koff given entry 2126-Hu-H26 (antibody, IgG1, name in Kabat numbering, V domains shown, IgG1/Cκ) VH: QVQLVQSGSELKKPGASVKVSCKASGYTFTDYSMHWVRQAPGQGLEWMGWINTDTGEPTYADDFKGRFVFSLDTSVSTAYLQISSLKAEDTAVYFCVRVGRYDYAMDYWGQGTTVTVSS VL: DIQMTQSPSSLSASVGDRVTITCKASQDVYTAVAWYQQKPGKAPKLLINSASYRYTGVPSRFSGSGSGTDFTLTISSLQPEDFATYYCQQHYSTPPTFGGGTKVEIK
## Result 0.00119

## Task // fetch koff given entry 2126-Hu-H23 (antibody, IgG1, V domains shown, IgG1/Cκ) VH: QVQLVQSGSELKKPGASLKVSCKASGYTFTDYSMHWVRQAPGQGLEWMGWINTETGEPTYADDFKGRFVFSLDTSVSTAYLQISSLKAEDTAVYFCVRVGRYDYAMDYWGQGTTVTVSS VL: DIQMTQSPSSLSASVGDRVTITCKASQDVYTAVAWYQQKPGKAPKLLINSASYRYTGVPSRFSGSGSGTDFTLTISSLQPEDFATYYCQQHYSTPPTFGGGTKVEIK
## Result 0.000623

## Task // fetch koff given entry 2126-Hu-L05 (antibody, IgG1, V domains shown, IgG1/Cκ) VH: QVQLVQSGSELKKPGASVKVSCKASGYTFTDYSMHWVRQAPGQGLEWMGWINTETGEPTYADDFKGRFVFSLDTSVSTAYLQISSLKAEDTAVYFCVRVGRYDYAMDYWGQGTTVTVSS VL: DIQMTQSPSSLSASVGDRVTITCKASQDVYTAVAWYQQKPGKAPKLLIYSASYRYTGVPSRFSGSGSGTDFTLTISSLQPEDFATYYCQQHYSTPPTFGGGTKVEIK
## Result 0.00139

## Task // fetch koff given entry 2126-Hu-H50 (antibody, IgG1, V domains shown, IgG1/Cκ) VH: QVQLVQSGSELKKPGASVKVSCKASGYTFTDYSMHWVRQAPGQGLEWMGWINTETGEPTYADDFKGRFVFSLDTSVSTAYLQISSLKAEDTAVYFCVRVGYYDYAMDYWGQGTTVTVSS VL: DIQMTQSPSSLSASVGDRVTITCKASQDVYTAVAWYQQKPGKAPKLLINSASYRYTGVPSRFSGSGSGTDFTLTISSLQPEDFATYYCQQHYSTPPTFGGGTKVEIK
## Result 0.000902

## Task // fetch koff given entry 2126-Hu-H37 (antibody, IgG1, V domains shown, IgG1/Cκ) VH: QVQLVQSGSELKKPGASVKVSCKASGYTFTDYSMHWVRQAPGQGLEWMGWINTETGEPTYADDFKGRFSFSLDTSVSTAYLQISSLKAEDTAVYFCVRVGRYDYAMDYWGQGTTVTVSS VL: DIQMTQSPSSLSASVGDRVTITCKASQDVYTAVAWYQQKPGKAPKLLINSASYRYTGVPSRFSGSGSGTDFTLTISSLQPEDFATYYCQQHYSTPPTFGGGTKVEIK
## Result 0.000545
